Source of measurements: ChEMBL document CHEMBL1130185

# procedureText: Deprotonation equilibrium constant for compound was determined
# Type: ADME
readoutName: pKa

[
  {
    "smilesText": "COc1ccc2nc3cc(Cl)ccc3c(NCCCNCCCN)c2c1",
    "pKa": 10
  },
  {
    "smilesText": "COc1ccc2nc3cc(Cl)ccc3c(NCCCNCCCNCCn3cnc4c(N)nc(N)nc43)c2c1",
    "pKa": 9.8
  }
]
